# Test system: A-375
# ASSAY_PROCEDURE: Antiproliferative activity against human A375 cells
# Type: functional, cell-based
READOUT: EC50 (nM)
Give a bare numeral; the unit nM is implied.

Below, 2 compounds whose answers are already recorded.
• CC(=O)Nc1cn2cc(-c3cc(NC(=O)c4ccccc4)ccc3C)ccc2n1 = 100
• CC(=O)Nc1cn2cc(-c3cc(NC(=O)c4cccc(Cl)c4)ccc3C)ccc2n1 = 70

Now for another entry.
Data request: May I ask what EC50 has been recorded for "CC(=O)Nc1cn2cc(-c3cc(NC(=O)c4cc(N5CCN(C)C[C@@H]5C)cc(C(F)(F)F)c4)ccc3C)ccc2n1" ?
Data returned: 340

# credit: ChEMBL document CHEMBL4177673
